Target: Kappa-type opioid receptor (Homo sapiens)
Sequence (P41145 whole entry): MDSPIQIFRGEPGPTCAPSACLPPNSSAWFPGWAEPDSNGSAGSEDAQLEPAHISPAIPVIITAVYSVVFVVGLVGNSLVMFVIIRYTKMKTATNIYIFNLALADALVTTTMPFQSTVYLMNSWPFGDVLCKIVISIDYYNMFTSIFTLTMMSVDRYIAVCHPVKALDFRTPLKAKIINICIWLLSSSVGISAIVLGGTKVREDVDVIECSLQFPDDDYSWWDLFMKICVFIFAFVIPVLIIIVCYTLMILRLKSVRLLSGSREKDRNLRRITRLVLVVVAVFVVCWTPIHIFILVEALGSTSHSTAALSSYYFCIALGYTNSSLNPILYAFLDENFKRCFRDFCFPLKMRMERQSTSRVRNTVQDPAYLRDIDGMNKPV
Format: functional
This section presents compounds with their documented pIC50 values.
pIC50 (log units): -log10 of the concentration in mol/L.

Cc1ccc(CN2C3CCCC2CC(NC(=O)c2ccc(F)cc2)C3)cc1 (stereo not drawn); 5.43

In the following, a different compound is considered.
Supply pIC50 measured with Kappa-type opioid receptor (Homo sapiens) for Oc1c(/C=N/c2cccc3cccnc23)sc2ccccc12 . 5.95

----------
Molecular target: G-protein coupled receptor 35 (Homo sapiens, UniProt Q9HC97)
Sequence (Q9HC97 whole entry): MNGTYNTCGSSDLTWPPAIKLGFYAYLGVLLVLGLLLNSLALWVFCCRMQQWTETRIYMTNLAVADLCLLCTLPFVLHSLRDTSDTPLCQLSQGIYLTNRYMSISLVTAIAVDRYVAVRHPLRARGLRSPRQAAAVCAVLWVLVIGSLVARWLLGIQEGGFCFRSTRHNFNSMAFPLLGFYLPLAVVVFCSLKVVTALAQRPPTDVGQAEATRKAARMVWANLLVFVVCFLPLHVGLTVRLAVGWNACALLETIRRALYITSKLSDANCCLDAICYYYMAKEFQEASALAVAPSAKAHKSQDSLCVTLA
Assay: inhibition of zaprinast-stimulated GPR35 beta-arrestin translocation – imaging, U2OS, beta-arrestin-GFP, zaprinast agonist, primary screen (AID 2058);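 also: antagonist potency meaning inhibition of agonist-induced arrestin redistribution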
Assay type: functional
Activity calls are given as the source filed them. How the calls were made is not given here.
result type: IC50

Input COc1ccc(/C=c2\s/c(=C/C(=O)c3ccc(C)cc3)[nH]c2=O)c(OC)c1 , output reported IC50. 1.76 µM (active)

Input CCN(CC)c1ccc(/C=C(/C#N)c2nc3ccccc3[nH]2)c(OC(C)C)c1 , output reported IC50. 1.19 µM (active)

Input O=c1c(Cl)c(Cl)cnn1Cc1ccccc1Cl , output reported IC50. 2.16 µM (active)

Input Cc1ccc(/C=C2\SC(=S)N(CCCC(=O)Nc3cccc(C(=O)O)c3)C2=O)cc1 , output reported IC50. < 0.5 µM (active)
